Test system: KM12 colon
experimental.protocol: NCI tumour cell line growth inhibition, 48 h

>  <compound>
CCOC(=O)c1c2c(n3cccc(F)c13)C(=O)c1ncccc1C2=O

>  <prefix.operator>
=

>  <TGI [µM]>
18.9

$$$$
>  <compound>
Clc1ccc(CSCc2ccc(Cl)cc2Cl)c(Cl)c1

>  <prefix.operator>
>

>  <TGI [µM]>
100

$$$$
>  <compound>
CC(C)(C)C1CCN(C(=O)c2ccccc2)CC1

>  <prefix.operator>
>

>  <TGI [µM]>
100

$$$$
>  <compound>
O=C(NO)c1ccc(OCc2ccccc2)cc1

>  <prefix.operator>
>

>  <TGI [µM]>
100

$$$$
>  <compound>
N=C(N)c1ccc(-c2ccc(-c3ccc(C(=N)N)cc3)o2)cc1

>  <prefix.operator>
>

>  <TGI [µM]>
100

$$$$
>  <compound>
CCN(CC)CCCC(C)Nc1ccnc2cc(Cl)c(SCc3ccccc3)cc12 (stereo not drawn)

>  <prefix.operator>
=

>  <TGI [µM]>
3.96

$$$$
>  <compound>
CCCCC/C(=N\c1nc[nH]c1C(N)=O)OCC

>  <prefix.operator>
>

>  <TGI [µM]>
100

$$$$
>  <compound>
COc1cccc(-c2cc(NCc3ccc4c(c3)OCO4)nc(N)n2)c1

>  <prefix.operator>
=

>  <TGI [µM]>
8.18

$$$$
>  <compound>
CCC(C)(C)c1ccc(Oc2cccc(C(=O)O)c2)cc1

>  <prefix.operator>
>

>  <TGI [µM]>
100

$$$$
>  <compound>
O=C1c2cccnc2-c2nccc3ccnc1c23

>  <prefix.operator>
=

>  <TGI [µM]>
2.66

$$$$
>  <compound>
COc1ccc(-c2oncc2-c2cc(OC)c3c(c2)OCO3)cc1

>  <prefix.operator>
>

>  <TGI [µM]>
82.2

$$$$
>  <compound>
C=C1C(=O)O[C@H]2[C@H]3O[C@@H](C[C@@H]12)[C@](C)(O)CCCC(C)=CCC[C@H]3C

>  <prefix.operator>
=

>  <TGI [µM]>
27.1

$$$$
>  <compound>
COc1ccc(OC)c(/C=C/c2cnnc3ccccc23)c1

>  <prefix.operator>
>

>  <TGI [µM]>
10

$$$$
>  <compound>
O=C1NCN(c2ccccc2)C12CCN(CCCSc1ccc(F)cc1)CC2

>  <prefix.operator>
=

>  <TGI [µM]>
65.4

$$$$
>  <compound>
O=C(CCc1cc(-c2ccco2)n(-c2ccc([N+](=O)[O-])cc2[N+](=O)[O-])n1)Nc1ccccc1

>  <prefix.operator>
>

>  <TGI [µM]>
100

$$$$
>  <compound>
O=C(Nc1ccc(F)cc1)c1cc2ccc(O)cc2oc1=Nc1cccc(F)c1

>  <prefix.operator>
>

>  <TGI [µM]>
100

$$$$
>  <compound>
COC(=O)[C@]1(C)CCC[C@]2(C)C3CC4OOC3(C=C4C(C)C)CCC21 (stereo partly drawn)

>  <prefix.operator>
=

>  <TGI [µM]>
32.4

$$$$
>  <compound>
C/C(=C\[C@H]1C[C@@H]([C@@H]2CC[C@]34C[C@]23C=C[C@@H]2[C@@]3(C)CC=C5C[C@@H](c6ccccc6)OC[C@]5(C)[C@@H]3C[C@@H](O)[C@]24C)C(=O)O1)CO

>  <prefix.operator>
=

>  <TGI [µM]>
15.3

$$$$
>  <compound>
C(=N/Nc1ccccn1)/c1cccnc1

>  <prefix.operator>
>

>  <TGI [µM]>
100

$$$$
>  <compound>
Cc1cc(NC(=O)C(=O)Cc2nc3ccccc3s2)ccc1Cl

>  <prefix.operator>
>

>  <TGI [µM]>
100

$$$$
>  <compound>
Cc1c(C)c(C)c(CSC(=N)N)c(C)c1C

>  <prefix.operator>
=

>  <TGI [µM]>
39.3

$$$$
>  <compound>
Nc1nc(Cl)cc(NCC2(CO)CC(Cc3ccccc3)C2)n1 (stereo not drawn)

>  <prefix.operator>
>

>  <TGI [µM]>
100

$$$$
>  <compound>
Cc1ccc(S(=O)(=O)N2C/C(=C\c3cc(F)cc(F)c3)C(=O)/C(=C/c3cc(F)cc(F)c3)C2)cc1

>  <prefix.operator>
=

>  <TGI [µM]>
0.704

$$$$
>  <compound>
Cn1cc(C2=C(c3cccc(NCC(O)CO)c3)C(=O)NC2=O)c2cc(Cl)ccc21 (stereo not drawn)

>  <prefix.operator>
=

>  <TGI [µM]>
9.5

$$$$
>  <compound>
Oc1ccc2c3c1OC1c4[nH]c5c(c4CC4(O)C(C2)N(CC2CC2)CC[C@]314)CC1(O)C2Cc3ccc(O)c4c3[C@@]1(CCN2CC1CC1)C5O4 (stereo partly drawn)

>  <prefix.operator>
=

>  <TGI [µM]>
32.2

$$$$
>  <compound>
Cc1cccc2c(=O)c3c(sc12)c(NCCN)nc1ccccc13

>  <prefix.operator>
=

>  <TGI [µM]>
1.77

$$$$
>  <compound>
[O-][n+]1onc2c1-c1nonc1CC2

>  <prefix.operator>
=

>  <TGI [µM]>
81.5

$$$$
>  <compound>
Cc1cccc(C(O)c2ccccn2)c1O (stereo not drawn)

>  <prefix.operator>
>

>  <TGI [µM]>
100

$$$$
>  <compound>
C/C(CC(=O)Nc1ccc([N+](=O)[O-])cc1)=N/N=C(N)N

>  <prefix.operator>
>

>  <TGI [µM]>
100

$$$$
>  <compound>
FC(F)(F)c1ccccc1C=NC12CC3CC(CC(C3)C1)C2

>  <prefix.operator>
>

>  <TGI [µM]>
100

$$$$
>  <compound>
COc1ccc2c(c1)N(CCC1CCCCN1C)c1ccccc1S2 (stereo not drawn)

>  <prefix.operator>
=

>  <TGI [µM]>
23.6

$$$$
>  <compound>
O=S(=O)(c1ccccc1)C1CN(Cc2ccccc2)CCN(Cc2ccccc2)C1

>  <prefix.operator>
>

>  <TGI [µM]>
100

$$$$
>  <compound>
O=C(Cc1nc2ccccc2s1)NC12CC3CC(CC(C3)C1)C2

>  <prefix.operator>
>

>  <TGI [µM]>
100

$$$$
>  <compound>
COc1ccc2c(c1)c(=O)oc1cc(OC/C(=N\O)c3ccc(F)cc3)ccc12

>  <prefix.operator>
=

>  <TGI [µM]>
43.8

$$$$
>  <compound>
O=C(Nc1ncc(Cc2ccc(Cl)cc2)s1)c1ccc2c(c1)OCCO2

>  <prefix.operator>
>

>  <TGI [µM]>
58

$$$$
>  <compound>
O=C1[C@H](c2ccccc2)C2c3ccccc3CCN12 (stereo partly drawn)

>  <prefix.operator>
>

>  <TGI [µM]>
100

$$$$
>  <compound>
CC[C@]12C=CCN3CCC4(c5cc(N=Nc6ccc([N+](=O)[O-])cc6)c(OC)cc5N(C)[C@H]4[C@@](O)(C(=O)OC)[C@@H]1OC(C)=O)[C@@H]32 (stereo partly drawn)

>  <prefix.operator>
=

>  <TGI [µM]>
33.2

$$$$
>  <compound>
OCCCNC(=S)Nc1ccc(-c2nc3ccccc3s2)cc1

>  <prefix.operator>
=

>  <TGI [µM]>
46.9

$$$$
>  <compound>
CC(=O)OCC(OC(C)=O)C(OC(C)=O)C(OC(C)=O)C(/C=N\Nc1nc2ccccc2c(=O)[nH]1)OC(C)=O (stereo not drawn)

>  <prefix.operator>
>

>  <TGI [µM]>
100

$$$$
>  <compound>
COc1ccc(C2Oc3c(cccc3OC)C=C2[N+](=O)[O-])cc1 (stereo not drawn)

>  <prefix.operator>
=

>  <TGI [µM]>
4.52

$$$$
>  <compound>
CC(C)C(/C=C/c1ccc(Cl)cc1)=N\NC(=S)NN

>  <prefix.operator>
>

>  <TGI [µM]>
100

$$$$
>  <compound>
O=c1nc2[nH]nc(-c3ccccc3)c2n[nH]1

>  <prefix.operator>
>

>  <TGI [µM]>
100

$$$$
>  <compound>
COc1ccc(C2SC(C)C(=O)N2NC(=O)C(O)c2ccccc2)cc1 (stereo not drawn)

>  <prefix.operator>
>

>  <TGI [µM]>
100

$$$$
